Hello, the source for this data is patent EP0227941A1, in case you need it.

Reported pIC50 values for a set of compounds
- system.under.test: Monoaminoxidase Typ A (Rattus norvegicus)
- Construct: Die Bestimmung der Monoaminoxidase erfolgte in verdünntem Rattenhirnhomogenat; from tissue; host or cells: rat brain homogenate
- Sequence (P21396 1-526): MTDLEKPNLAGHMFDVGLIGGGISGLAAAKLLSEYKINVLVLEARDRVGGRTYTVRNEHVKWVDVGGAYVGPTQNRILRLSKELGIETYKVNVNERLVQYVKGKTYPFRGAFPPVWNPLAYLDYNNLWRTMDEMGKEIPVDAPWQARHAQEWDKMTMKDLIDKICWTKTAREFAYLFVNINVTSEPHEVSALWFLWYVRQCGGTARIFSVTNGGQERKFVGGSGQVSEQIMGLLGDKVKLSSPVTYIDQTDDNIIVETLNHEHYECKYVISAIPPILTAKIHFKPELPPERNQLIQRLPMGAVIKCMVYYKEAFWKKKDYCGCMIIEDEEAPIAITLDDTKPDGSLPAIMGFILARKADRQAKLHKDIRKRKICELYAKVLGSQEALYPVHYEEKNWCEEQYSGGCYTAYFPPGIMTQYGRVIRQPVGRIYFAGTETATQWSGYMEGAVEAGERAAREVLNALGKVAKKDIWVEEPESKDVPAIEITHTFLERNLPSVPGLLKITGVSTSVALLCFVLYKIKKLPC
- assay.details: Inhibition of monoamine oxidase type A in rat brain homogenate (14C-tryptamine)
- Format: biochemical, Ratten
- assay.conditions: rat brain homogenate, 14C-Tryptamin, 20 min 37°C; read-out: Hemmung der Monoaminoxidase Typ A IC50
pIC50: −log10 of the molar value.

[
  {
    "compound": "N=c1ccn(-c2ccc(Br)c(Br)c2)nc1 [Beispiel 18]",
    "pIC50": 6.06
  },
  {
    "compound": "N=c1ccn(-c2ccc(Br)cc2)nc1 [Beispiel 8]",
    "pIC50": 5.54
  },
  {
    "compound": "Cc1ccc(-n2ccc(=N)cn2)cc1Cl [Beispiel 42]",
    "pIC50": 6.12
  },
  {
    "compound": "Cc1ccc(-n2ccc(=N)cn2)cc1F [Beispiel 11]",
    "pIC50": 5.68
  },
  {
    "compound": "N=c1ccn(-c2ccc(C(F)(F)F)cc2)nc1 [Beispiel 32]",
    "pIC50": 5.15
  },
  {
    "compound": "N=c1ccn(-c2ccc(Cl)c(Br)c2)nc1 [Beispiel 16]",
    "pIC50": 5.67
  },
  {
    "compound": "N=c1ccn(-c2ccc(Br)c(Cl)c2)nc1 [Beispiel 17]",
    "pIC50": 5.82
  },
  {
    "compound": "Cc1cc(-n2ccc(=N)cn2)ccc1Br [Beispiel 46]",
    "pIC50": 6.00
  },
  {
    "compound": "N=c1ccn(-c2ccc(Cl)c(Cl)c2)nc1 [Beispiel 1]",
    "pIC50": 5.72
  },
  {
    "compound": "N=c1ccn(-c2ccc(C(F)(F)F)c(Cl)c2)nc1 [Beispiel 12]",
    "pIC50": 5.74
  },
  {
    "compound": "Cc1ccc(-n2ccc(=N)cn2)cc1Br [Beispiel 13]",
    "pIC50": 6.23
  },
  {
    "compound": "Cc1cc(-n2ccc(=N)cn2)ccc1Cl [Beispiel 45]",
    "pIC50": 6.00
  }
]
